Species on record: Rattus norvegicus
Test Summary: Open TG-GATES - Regimen: Daily Repeat
Format: toxicity, organism-based, Sprague-Dawley
Parameters: regimen Daily Repeat, gender Male, age 6 weeks
Experimental Conditions: in vivo, po, 100 mg/kg, […], tissue Plasma, route gavage, dose level Low, time 7 day
Could you please report measured TC for the items listed next?
# number only, unit mg/dL dropped from output

Looking up CC(=O)[C@@]1(O)CC[C@H]2[C@@H]3C=C(Cl)C4=CC(=O)CC[C@]4(C)[C@H]3CC[C@@]21C [CHLORMADINONE] , I found its TC recorded as 67.4

Looking up CC(S)C(=O)NCC(=O)O (centres undefined) [TIOPRONIN] , I found its TC recorded as 70.6

Looking up CCCCNC(=O)NS(=O)(=O)c1ccc(C)cc1 [TOLBUTAMIDE] , I found its TC recorded as 79.6

Looking up O=C(O)c1ccccc1Nc1ccccc1 [FENAMIC ACID] , I found its TC recorded as 80.2

====

Could you please report measured GLC for the items listed next?
Species on record: Rattus norvegicus
Test Summary: Open TG-GATES - Regimen: Daily Repeat
Assay type: toxicity, organism-based, Sprague-Dawley
Design: regimen Daily Repeat, gender Male, age 6 weeks
Experimental Conditions: in vivo, po, 1000 mg/kg, […], tissue Plasma, route gavage, dose level High, time 7 day
# number only, unit mg/dL dropped from output

Looking up CC(S)C(=O)NCC(=O)O (centres undefined) [TIOPRONIN] , I found its GLC recorded as 177.2

Looking up CC(=O)[C@@]1(O)CC[C@H]2[C@@H]3C=C(Cl)C4=CC(=O)CC[C@]4(C)[C@H]3CC[C@@]21C [CHLORMADINONE] , I found its GLC recorded as 187.2

Looking up O=C(O)c1ccccc1Nc1ccccc1 [FENAMIC ACID] , I found its GLC recorded as 177.3

Looking up CCCCNC(=O)NS(=O)(=O)c1ccc(C)cc1 [TOLBUTAMIDE] , I found its GLC recorded as 189.6

====

Organism: Rattus norvegicus
Test Summary: Open TG-GATES - Regimen: Daily Repeat
Type: toxicity, organism-based, Sprague-Dawley
Set-up: regimen Daily Repeat, gender Male, age 6 weeks
Experimental Conditions: in vivo, po, 300 mg/kg, […], tissue Plasma, route gavage, dose level Middle, time 7 day
Could you please report measured IP for the items listed next?

Looking up CC(S)C(=O)NCC(=O)O (centres undefined) , I found its IP recorded as 7.3 mg/dL

Looking up O=C(O)c1ccccc1Nc1ccccc1 , I found its IP recorded as 7 mg/dL

Looking up CCCCNC(=O)NS(=O)(=O)c1ccc(C)cc1 [TOLBUTAMIDE] , I found its IP recorded as 7.5 mg/dL

Looking up CC(=O)[C@@]1(O)CC[C@H]2[C@@H]3C=C(Cl)C4=CC(=O)CC[C@]4(C)[C@H]3CC[C@@]21C , I found its IP recorded as 7.4 mg/dL

====

Species on record: Rattus norvegicus
Test Summary: Open TG-GATES - Regimen: Single
Type: toxicity, organism-based, Sprague-Dawley
Design: regimen Single, gender Male, age 6 weeks
Experimental Conditions: in vivo, po, 0 mg/kg, 9 h, tissue Plasma, route gavage, dose level Control
Could you please report measured Na for the items listed next?
In your response, put the unit directly after the numeric value.

Looking up COc1ccc([C@@H]2Sc3ccccc3N(CCN(C)C)C(=O)[C@@H]2OC(C)=O)cc1 [DILTIAZEM] , I found its Na recorded as 142.2 meq/L

Looking up CN(C)CCCN1c2ccccc2Sc2ccc(Cl)cc21 [CHLORPROMAZINE] , I found its Na recorded as 141.8 meq/L

Looking up C=C[C@H]1C[N@@]2CC[C@H]1C[C@@H]2[C@@H](O)c1ccnc2ccc(OC)cc12 [QUINIDINE] , I found its Na recorded as 143.8 meq/L

Looking up CC(S)C(=O)NCC(=O)O (stereo not given) [TIOPRONIN] , I found its Na recorded as 143.8 meq/L

Looking up CCN(CC)C(=S)SSC(=S)N(CC)CC , I found its Na recorded as 140.8 meq/L
